Documented self-cleavage across a set of variants
B1: Osa-1-4 twister ribozyme (parent)
chain: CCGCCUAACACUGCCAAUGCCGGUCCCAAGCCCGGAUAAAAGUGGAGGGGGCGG

- Variants of: B1
- MEASUREMENT_PROTOCOL: self-cleavage, relative activity (ratio to wild type); higher = more cleavage; co-transcriptional
Give the value as a plain number.

RESIDUES | self-cleavage
CCGCCUAACACUGCCAAUGCCGAUCCCAAGCCCGGUUAAAAGUGGAGGGGGCGG [A36U G23A] | 0.72
CCGCCUAACACUGCCAAUGCCGGUCCCAAGCCCGGAUAAAAGUUGAGUGGGCGG [G44U G48U] | 0.07
CCGCCUAACACUGCCAAUGCCGGUCCCUAGCCCGGACAAAAGUGGAGGGGGCGG [A28U U37C] | 0.97
CCGCCUAACACUGUCAAUGCCGGUCCCAAGUCCGGAUAAAAGUGGAGGGGGCGG [C14U C31U] | 0.06

Dear colleague, please send me the reported self-cleavage for CCGCCUAACACUGCCACUGCCGGUCCCAAGCCCGGAUAAAAGUGGAGGGGGUGG [A17C C52U] when you can.
0.78

Complete the entry with self-cleavage for CCGCCUAACGCUGCCAAUGCCGGUCCCAAUCCCGGAUAAAAGUGGAGGGGGCGG [A10G G30U]
0.05

Name the recorded self-cleavage of the item CCGCCUAACACUGCCAAUGCAGGUCCCAAGCCCGGAUAAAAGGGGAGGGGGCGG [C21A U43G] in your answer.
0.1
